molecular target: D(1A) dopamine receptor (Homo sapiens) (UniProt P21728); experiment: Allosteric Agonists of the Human D1 Dopamine Receptor: qHTS; details: HEK293 T-REx D1 cells, calcium flux, agonist mode; at 2 µM; also: 0% is about no effect
Sequence (P21728 whole entry, looked up): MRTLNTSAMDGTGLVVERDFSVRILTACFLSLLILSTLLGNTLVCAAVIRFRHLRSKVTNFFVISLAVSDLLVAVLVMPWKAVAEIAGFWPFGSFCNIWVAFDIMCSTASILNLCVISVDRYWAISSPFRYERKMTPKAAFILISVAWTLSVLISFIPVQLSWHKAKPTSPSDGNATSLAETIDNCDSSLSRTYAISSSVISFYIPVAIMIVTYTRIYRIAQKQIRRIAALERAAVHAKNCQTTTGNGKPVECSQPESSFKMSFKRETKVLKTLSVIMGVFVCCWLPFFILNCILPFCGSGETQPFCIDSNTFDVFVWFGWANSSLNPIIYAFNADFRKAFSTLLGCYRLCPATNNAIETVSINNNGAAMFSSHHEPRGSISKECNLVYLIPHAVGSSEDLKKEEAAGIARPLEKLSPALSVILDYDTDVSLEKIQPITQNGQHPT
The whole screen tested about 360,000 compounds, of which about 3,700 (1%) were called active. Rule as the data show it: active = activation above about 30%; inactive = the rest. This excerpt belongs to a sample that is enriched for actives.
Possible outcomes: active, inactive

Cc1ccc2nc(/C(C#N)=C/c3ccc(-c4ccc(C(=O)OC(C)C)cc4)o3)[nH]c2c1	active
O=S(=O)(c1ccc2c(c1)OCCCO2)N1CCN(S(=O)(=O)c2c(F)cccc2F)CC1	inactive
Fc1ccccc1CCNc1nnnn1-c1ccccc1	inactive
COc1cc(OC)c(N2CC(C(=O)Nc3cc(Cl)ccc3N3CCOCC3)CC2=O)cc1Cl (centres undefined)	inactive
Cc1c(Cl)cccc1-c1ccc(CNCCCSc2nnnn2C)o1	active
Cn1c(=O)c2c(n3c4ccccc4nc13)NC(=O)CC2c1cccc(Cl)c1 (centres undefined)	inactive
Cn1nnnc1SCCNCc1ccc(Cl)c(Cl)c1	inactive
COc1cc(CNCCSc2nnnn2C)ccc1OCc1c(F)cccc1Cl	inactive
CCOC(=O)C1CCN(C(=O)C2CCN(S(=O)(=O)c3c(C)noc3C)CC2)CC1	inactive

----------
target: D(1A) dopamine receptor (Homo sapiens); experiment: Allosteric Agonists of the Human D1 Dopamine Receptor: qHTS; conditions: HEK293 T-REx D1 cells, calcium flux, agonist mode; at 2 µM; stronger effect = higher value; also: 0% is about no effect
In all, about 360,000 compounds went through this assay and about 3,700 (1%) were called active. The list comes from a sample in which actives are over-represented; it also holds close analogues and randomly drawn compounds.
metric_name: activation (%)

O=C(CNC(=O)c1ccc(Cl)c(C(F)(F)F)c1)OC(C(=O)Nc1cc(C(F)(F)F)ccc1Cl)c1ccccc1 (configuration not stated)	15.3
COCCCNC(=O)c1c(NC(=O)c2cc(=O)c3cc(C)c(C)cc3o2)sc2c1CCCC2	-1.72
CCOc1ccc(N(CC)S(=O)(=O)N2CCCC(C(=O)NCc3ccc(SC)cc3)C2)cc1 (configuration not stated)	15.3
CN1CCN(CCCNC(=O)c2ccc(/C=C3\Oc4ccccc4N(Cc4ccc(Cl)cc4)C3=O)cc2)CC1	87.5
CCCn1c2ccccc2c2cnn(CC(=O)N(C)c3ccccc3CC)c(=O)c21	0.732
CCc1ccc(NC(=O)c2cc(S(=O)(=O)N3CCCC(C)C3)cn2C)cc1 (configuration not stated)	3.74
O=C(CSc1nc2c(c(=O)[nH]1)CN(Cc1ccc(F)cc1)CC2)Nc1ccccc1Cl	3.05

----------
molecular target: D(1A) dopamine receptor (Homo sapiens); assay: Allosteric Agonists of the Human D1 Dopamine Receptor: qHTS; details: HEK293 T-REx D1 cells, calcium flux, agonist mode; at 2 µM; stronger effect = higher value; also: 0% is about no effect
Screen size: about 360,000 compounds; about 3,700 (1%) were called active. The full list was thinned out, with actives kept by preference.
The reader will find reported activation values listed item by item below.
metric_name: activation (%)

CC(C)(C)c1ccc(Oc2ccc(N)cc2)cc1	5.93
CN(C)CCCNC(=S)N1CCC(c2nc3ccccc3[nH]2)CC1	-0.699
COCCNC(=O)c1ccc(Cn2c(SCC(=O)NCC3CCCO3)nc3ccc(Br)cc3c2=O)cc1 (stereo unspecified)	2.13
O=C(CNC(=O)c1ccc(Br)o1)NCC1CCCO1 (stereo unspecified)	0.969
Cc1cc(OCCN2CCCC2)ccc1C(C)C	2.99
OC(CNCC1CCCO1)Cn1c2ccc(Br)cc2c2cc(Br)ccc21 (stereo unspecified)	38.5
